The reported numbers originate from ChEMBL document CHEMBL3526049.

experiment: Cmax in wild-type Wistar rat at 5 mg/kg, po by LC-MS/MS analysis; format: ADME, organism-based; set-up: dose 5 mg/kg, route oral; details: in vivo
measured.parameter: Cmax (µg/mL)

1) O=C(O)c1cc(/N=N/c2ccc(S(=O)(=O)Nc3ccccn3)cc2)ccc1O: 0.49

---

assay: Tmax in BCRP knockout Sprague-Dawley rat treated with sulfasalazine at 20 mg/kg, po by LC-MS/MS analysis; type: ADME, organism-based; parameters: dose 20 mg/kg, route oral; details: in vivo
measured.parameter: Tmax (h)

1. Nc1ccc(S(=O)(=O)Nc2ccccn2)cc1: 4

---

experiment: Half life in wild-type Sprague-Dawley rat at 1 mg/kg, iv by LC-MS/MS analysis; assay type: ADME, organism-based; parameters: dose 1 mg/kg, route intravenous; conditions: in vivo
measured.parameter: half-life (h)

1) CN(C)C(=O)C(CCN1CCC(O)(c2ccc(Cl)cc2)CC1)(c1ccccc1)c1ccccc1 [LOPERAMIDE]: 1
2) CC(=O)O[C@H]1C(=O)[C@@]2(C)[C@H]([C@H](OC(=O)c3ccccc3)[C@]3(O)C[C@H](OC(=O)[C@H](O)[C@@H](NC(=O)c4ccccc4)c4ccccc4)C(C)=C1C3(C)C)[C@]1(OC(C)=O)CO[C@@H]1C[C@@H]2O: 7.2

---

assay: Tmax in MRP2 knockout Sprague-Dawley rat at 20 mg/kg, po by LC-MS/MS analysis; type: ADME, organism-based; design: dose 20 mg/kg, route oral; conditions: in vivo
measured.parameter: Tmax

1. O=C(O)c1cc(/N=N/c2ccc(S(=O)(=O)Nc3ccccn3)cc2)ccc1O [SULFASALAZINE]: 15 min

---

assay: Half life in MDR1A knockout Sprague-Dawley rat at 20 mg/kg, po by LC-MS/MS analysis; assay type: ADME, organism-based; design: dose 20 mg/kg, route oral; details: in vivo
measured.parameter: half-life (h)

1. O=C(O)c1cc(/N=N/c2ccc(S(=O)(=O)Nc3ccccn3)cc2)ccc1O: 2.3

---

assay: Half life in MRP2-deficient Wistar rat at 20 mg/kg, po by LC-MS/MS analysis; type: ADME, organism-based; design: dose 20 mg/kg, route oral; conditions: in vivo
measured.parameter: half-life

1) Nc1ccc(S(=O)(=O)Nc2ccccn2)cc1: 102 min

---

assay: Cmax in MRP2 knockout Sprague-Dawley rat at 20 mg/kg, po by LC-MS/MS analysis; type: ADME, organism-based; design: dose 20 mg/kg, route oral; settings: in vivo
measured.parameter: Cmax (ng/mL)

1. O=C(O)c1cc(/N=N/c2ccc(S(=O)(=O)Nc3ccccn3)cc2)ccc1O [SULFASALAZINE]: 320

---

assay: Tmax in wild-type Sprague-Dawley rat at 10 mg/kg, po by LC-MS/MS analysis; type: ADME, organism-based; set-up: dose 10 mg/kg, route oral; conditions: in vivo
measured.parameter: Tmax (min)

1. CN(C)C(=O)C(CCN1CCC(O)(c2ccc(Cl)cc2)CC1)(c1ccccc1)c1ccccc1 [LOPERAMIDE]: 18

---

assay: Half life in wild-type Sprague-Dawley rat at 5 mg/kg, po by LC-MS/MS analysis; format: ADME, organism-based; set-up: dose 5 mg/kg, route oral; conditions: in vivo
measured.parameter: half-life (h)

1) CC(=O)O[C@H]1C(=O)[C@@]2(C)[C@H]([C@H](OC(=O)c3ccccc3)[C@]3(O)C[C@H](OC(=O)[C@H](O)[C@@H](NC(=O)c4ccccc4)c4ccccc4)C(C)=C1C3(C)C)[C@]1(OC(C)=O)CO[C@@H]1C[C@@H]2O: 4.4
